Rape plant response rating by entry:
- Test system: rape
- assay-summary: Test B pre/postemergence rape
- Type: in vivo, Brassica napus
- conditions: Rate 500 g/ha, Preemergence; scale 0 to 10 (0 no effect, 10 complete control)
// no unit, no text: just the number

Solved entries (count: 4):
compound	system	Rape plant response rating
COc1ccc(N(C(=O)n2oc(=O)n(C(C)C)c2=O)C(C)C)cc1	rape	6
CC(C)N(C(=O)n1oc(=O)n(CCN(C)C(=O)c2ccccc2)c1=O)c1ccccc1	rape	0
CC(C)N(C(=O)n1oc(=O)n(C(C)C(=S)N(C)C)c1=O)c1ccc(Cl)cc1 (centres unmarked)	rape	5
C#CCCn1c(=O)on(C(=O)N(c2ccc(F)cc2)C(C)C)c1=O	rape	10

Any idea what its Rape plant response rating is? The compound is COC1CCC(Cn2c(=O)on(C(=O)N(c3ccc(F)cc3)C(C)C)c2=O)=NO1 (centres unmarked) 9

###

B. signalgrass plant response rating listing for selected molecules.
- System: surinam grass
- assay-summary: Test B pre/postemergence surinam grass
- Assay type: in vivo, Brachiaria decumbens
- conditions: Rate 500 g/ha, Postemergence; scale 0 to 10, 0 is no effect, 10 is complete control
The reply should be a number, written without any unit.

Use the examples below as a reference point.
compound-smiles	B. signalgrass plant response rating
CC(C)N(C(=O)n1oc(=O)n(CCCC#N)c1=O)c1ccc(F)cc1F	8
C=C(Cn1c(=O)on(C(=O)N(c2ccccc2)C(C)C)c1=O)C(C)C	0

# input for lookup
Fill in: B. signalgrass plant response rating of CC(C)N(C(=O)n1oc(=O)n(CF)c1=O)c1ccc(F)cc1 is ___ 0

###

- Tested on: morningglory
- assay-summary: Test B pre/postemergence morningglory
- Type: in vivo, Ipomoea hederacea
- conditions: Rate 500 g/ha, Preemergence; scale 0 to 10 (0 no effect, 10 complete control)
- Procedure: […] At the same time, these crop and weed species were also treated with postemergence applications of test chemicals formulated in the same manner. […] Treated plants and controls were maintained in a greenhouse for twelve to sixteen days, after which all species were compared to controls and visually evaluated. […]
Readings of Morningglory plant response rating for the listed compounds
// return a plain number; no unit text

compound	system	recorded-value
COc1ccc(N(C(=O)n2oc(=O)n(C(C)C)c2=O)C(C)C)cc1 [Compound 780]	morningglory	2

Can you look up the measured Morningglory plant response rating of CC(C)N(C(=O)n1oc(=O)n(CC2=NOCCO2)c1=O)c1ccc(F)cc1F [Compound 758] for me? 0

Moving on to CC(C)N(C(=O)n1oc(=O)n(CCN(C)C(=O)c2ccccc2)c1=O)c1ccccc1 [Compound 761] 0

Try CCOP(=O)(Cn1c(=O)on(C(=O)N(c2ccc(F)cc2F)C(C)C)c1=O)OCC [Compound 736] next. 6

###

compounds and their reported Corn plant response rating
- Test system: corn
- assay-summary: Test B pre/postemergence corn
- Assay type: in vivo, Zea mays
- conditions: Rate 250 g/ha, Postemergence; scale 0 to 10, 0 is no effect, 10 is complete control
Just the number, please, no unit after it.

Reference set, count: 5
compound	recorded-value
CC(C)N(C(=O)n1oc(=O)n(CC(F)F)c1=O)c1ccc(Cl)cc1 [Compound 745]	0
CC(C)N(C(=O)n1oc(=O)n(CCN(C)C(=O)c2ccccc2)c1=O)c1ccccc1 [Compound 761]	0
CC(C)N(C(=O)n1oc(=O)n(CC2=NOCCO2)c1=O)c1ccc(F)cc1 [Compound 765]	0
CC(C)N(C(=O)n1oc(=O)n(CCCCCl)c1=O)c1ccc(F)cc1 [Compound 712]	0
COc1ccc(N(C(=O)n2oc(=O)n(C(C)C)c2=O)C(C)C)cc1 [Compound 780]	3

Could you share which Corn plant response rating value was measured for CCOC(=O)CC(C(=O)OCC)n1c(=O)on(C(=O)N(c2ccc(Cl)cc2)C(C)C)c1=O (stereo not drawn) [Compound 681] ? 0

###

# Velvetleaf plant response rating annotations
- Tested on: velvetleaf
- assay-summary: Test B pre/postemergence velvetleaf
- Type: in vivo, Abutilon theophrasti
- conditions: Postemergence, Rate 125 g/ha; scale 0 to 10, 0 is no effect, 10 is complete control
Simply state the number, no unit and no words.

A selection of reference data follows.
compound-smiles	Velvetleaf plant response rating
CCCCn1c(=O)on(C(=O)N(c2ccc(Cl)cc2)C(C)C)c1=O	2
CC(C)N(C(=O)n1oc(=O)n(CC2=CCCN(C)C2)c1=O)c1ccccc1	0
CC(C)N(C(=O)n1oc(=O)n(CC2=CCCCC2)c1=O)c1ccccc1	0

Please look at the following compound next.
Record request: Velvetleaf plant response rating value, item COCCOCn1c(=O)on(C(=O)N(c2ccc(F)cc2F)C(C)C)c1=O 0

###

- Test system: rape
- assay-summary: Test B pre/postemergence rape
- Type: in vivo, Brassica napus
- conditions: Rate 250 g/ha, Postemergence; scale 0 to 10, 0 is no effect, 10 is complete control
Here, each record is paired with measured Plant response rating, Rape data.
The response must contain the number and no unit.

Use these answered entries as a reference point.
compound	system	Plant response rating, Rape
Cc1ccc(N(C(=O)n2oc(=O)n(C(C)C)c2=O)C(C)C)cc1	rape	0
CC(C)N(C(=O)n1oc(=O)n(C(C)c2ccccc2)c1=O)c1ccc(Cl)cc1 (stereo not drawn)	rape	0
CC(C)N(C(=O)n1oc(=O)n(C(C)(C)C)c1=O)c1ccccc1	rape	0
CC(C)N(C(=O)n1oc(=O)n(N(C)c2ccccc2)c1=O)c1ccc(F)cc1	rape	0
C=CCn1c(=O)on(C(=O)N(c2ccc(F)cc2)C(C)C)c1=O	rape	3

With those in mind, consider the next compound.
# get_value(readout='Plant response rating, Rape', item= CC(C)N(C(=O)n1oc(=O)n([C@@H](C)c2ccccc2)c1=O)c1ccccc1 ) 0

###

- System: bedstraw
- assay-summary: Test B pre/postemergence bedstraw
- Format: in vivo, Galium aparine
- conditions: Preemergence, Rate 500 g/ha; scale of 0 to 10 where 0 is no effect and 10 is complete control
property-label: Plant response rating, Bedstraw
No unit in the answer, please; the number alone is enough.

compound	recorded-value
CC(C)N(C(=O)n1oc(=O)n(C(C)C2CCC2)c1=O)c1ccc(F)cc1F (centres unmarked)	0
CC(C)N(C(=O)n1oc(=O)n(CCCCCl)c1=O)c1ccc(F)cc1	5
CC(C)N(C(=O)n1oc(=O)n(CF)c1=O)c1ccc(F)cc1	0
Cc1nc(C)c(-n2c(=O)on(C(=O)N(c3ccccc3)C(C)C)c2=O)s1	0
CCOC(Cn1c(=O)on(C(=O)N(c2ccc(F)cc2)C(C)C)c1=O)OCC	8
CC(C)N(C(=O)n1oc(=O)n(C(C)C2CC2)c1=O)c1ccccc1 (centres unmarked)	0
CCN(C(=O)n1oc(=O)n(C)c1=O)C1CCCCC1	0

// switching to the query compound
Return Plant response rating, Bedstraw measured with bedstraw given this compound: C=C(Cn1c(=O)on(C(=O)N(c2ccccc2)C(C)C)c1=O)C(C)C 0

###

- Test system: blackgrass
- assay-summary: Test B pre/postemergence blackgrass
- Type: in vivo, Alopecurus myosuroides
- conditions: Postemergence, Rate 500 g/ha; scale 0 to 10, 0 is no effect, 10 is complete control
Recorded Plant response rating, Blackgrass by entry

compound	system	recorded-value
CCCCn1c(=O)on(C(=O)N(c2ccc(Cl)cc2)C(C)C)c1=O [Compound 527]	blackgrass	7

# query: Plant response rating, Blackgrass of entry CC(C)C(=O)Cn1c(=O)on(C(=O)N(c2ccc(F)cc2F)C(C)C)c1=O [Compound 486] 8

And CCOCn1c(=O)on(C(=O)N(c2ccc(Cl)cc2)C(C)C)c1=O [Compound 534] ? 7

Again, but for CC(C)N(C(=O)n1oc(=O)n(CC2=CCCCC2)c1=O)c1ccccc1 [Compound 496] 5

###

// reported Morningglory plant response rating for each item listed
- Tested on: morningglory
- assay-summary: Test B pre/postemergence morningglory
- Type: in vivo, Ipomoea hederacea
- conditions: Rate 62 g/ha, Postemergence; scale 0 to 10, 0 no effect, 10 complete control
Respond with the number and no other words.

Solved entries (count: 4):
compound	system	Morningglory plant response rating
CC[Si](C)(C)Cn1c(=O)on(C(=O)N(c2ccc(F)cc2)C(C)C)c1=O	morningglory	6
CC(C)N(C(=O)n1oc(=O)n(CC2=CCCN(C)C2)c1=O)c1ccccc1	morningglory	0
CC(C)C(=O)Cn1c(=O)on(C(=O)N(c2ccc(F)cc2F)C(C)C)c1=O	morningglory	1
C=CC(OC)n1c(=O)on(C(=O)N(c2ccc(F)cc2)C(C)C)c1=O (centres unmarked)	morningglory	1

Please turn your attention to the following entry.
Could you share which Morningglory plant response rating value was measured for COCC(C)N(C(=O)n1oc(=O)n(-c2ccccc2C)c1=O)c1ccc(F)cc1 (centres unmarked) ? 0

###

- System: crabgrass
- assay-summary: Test B pre/postemergence crabgrass
- Type: in vivo, Digitaria sanguinalis
- conditions: Postemergence, Rate 125 g/ha; scale of 0 to 10 where 0 is no effect and 10 is complete control
property-label: Crabgrass plant response rating
Kindly provide the number alone.

Worked examples follow.
compound-smiles	system	recorded-value
CC(C)N(C(=O)n1oc(=O)n(CC(F)F)c1=O)c1ccc(Cl)cc1	crabgrass	4
CC(C)N(C(=O)n1oc(=O)n(C)c1=O)c1ccc(Cl)cc1	crabgrass	8
COc1ccc(N(C(=O)n2oc(=O)n(C(C)C)c2=O)C(C)C)cc1	crabgrass	4
C=CCn1c(=O)on(C(=O)N(c2ccc(F)cc2)C(C)C)c1=O	crabgrass	9

Find the recorded Crabgrass plant response rating belonging to CC(C)N(C(=O)n1oc(=O)n(CCCCCl)c1=O)c1ccc(F)cc1 and report it. 4
